For each entry below, report its human TRPV1 H^+ (max % remain) value.
# assay-system: human TRPV1 (Homo sapiens (Human))
# experimental-details: Acid Activation Assay (pH 5.0, intracellular Ca2+, FLIPR)
# Type: cell-based
# run-parameters: percentage of the maximal pH 5.0-induced response remaining; recombinant HEK293 hTRPV1 cells; maximum concentration tested 37.5 μM
Respond numerically; units are % and should not be typed.

Query string: Find the recorded human TRPV1 H^+ (max % remain) belonging to O=C1CCc2ccc(NC(=O)N[C@@H]3CC(CF)(CF)Oc4c(F)cc(F)cc43)cc2N1 and report it.
Result string: 40

Query string: Need human TRPV1 H^+ (max % remain) of CCCC1(CCC)C[C@@H](NC(=O)Nc2ccc3c(c2)NC(=O)N(CCO)C3)c2cc(F)ccc2O1 , thanks.
Result string: 2

Query string: // lookup human TRPV1 H^+ (max % remain) for CN1Cc2ccc(NC(=O)N[C@@H]3CC(CF)(CF)Oc4cc(OC(F)(F)F)ccc43)cc2NC1=O
Result string: 42

Query string: Name the reported human TRPV1 H^+ (max % remain) value associated with the molecule C[C@]1(C(F)(F)F)C[C@@H](NC(=O)Nc2ccc3c(c2)NC(=O)CO3)c2ccccc2O1
Result string: 87

Query string: Record request: human TRPV1 H^+ (max % remain) value, item CN1C(=O)CCc2ccc(NC(=O)N[C@@H]3CC(CF)(CF)Oc4cc(F)ccc43)cc21
Result string: 68

Query string: human TRPV1 H^+ (max % remain) for CC1(C)C[C@@H](NC(=O)Nc2ccc3c(c2)NC(=O)CO3)c2ccc(C(F)(F)F)cc2O1 ?
Result string: 98

Query string: Record request: human TRPV1 H^+ (max % remain) value, item CCCC1(CCC)C[C@@H](NC(=O)Nc2ccc3c(c2)NC(=O)N(C)C3)c2cccc(F)c2O1
Result string: 79

Query string: Find the recorded human TRPV1 H^+ (max % remain) belonging to O=C1CCc2ccc(NC(=O)N[C@H]3CC4(CCC4)Oc4ccc(F)cc43)cc2N1 and report it.
Result string: 30

Query string: Look up human TRPV1 H^+ (max % remain) for this molecule: O=C1CCc2ccc(NC(=O)N[C@@H]3CC(CF)(CF)Oc4ccc(F)cc43)cc2N1
Result string: 42

Query string: What does the data say about its human TRPV1 H^+ (max % remain)? Entry: O=C1COc2ccc(NC(=O)NCC3COc4ccc(F)cc4C3)cc2N1 (stereo not shown)
Result string: 100

* * *

# assay-system: human TRPV1 (Homo sapiens (Human), UniProt Q8NER1)
# Sequence (Q8NER1 whole entry): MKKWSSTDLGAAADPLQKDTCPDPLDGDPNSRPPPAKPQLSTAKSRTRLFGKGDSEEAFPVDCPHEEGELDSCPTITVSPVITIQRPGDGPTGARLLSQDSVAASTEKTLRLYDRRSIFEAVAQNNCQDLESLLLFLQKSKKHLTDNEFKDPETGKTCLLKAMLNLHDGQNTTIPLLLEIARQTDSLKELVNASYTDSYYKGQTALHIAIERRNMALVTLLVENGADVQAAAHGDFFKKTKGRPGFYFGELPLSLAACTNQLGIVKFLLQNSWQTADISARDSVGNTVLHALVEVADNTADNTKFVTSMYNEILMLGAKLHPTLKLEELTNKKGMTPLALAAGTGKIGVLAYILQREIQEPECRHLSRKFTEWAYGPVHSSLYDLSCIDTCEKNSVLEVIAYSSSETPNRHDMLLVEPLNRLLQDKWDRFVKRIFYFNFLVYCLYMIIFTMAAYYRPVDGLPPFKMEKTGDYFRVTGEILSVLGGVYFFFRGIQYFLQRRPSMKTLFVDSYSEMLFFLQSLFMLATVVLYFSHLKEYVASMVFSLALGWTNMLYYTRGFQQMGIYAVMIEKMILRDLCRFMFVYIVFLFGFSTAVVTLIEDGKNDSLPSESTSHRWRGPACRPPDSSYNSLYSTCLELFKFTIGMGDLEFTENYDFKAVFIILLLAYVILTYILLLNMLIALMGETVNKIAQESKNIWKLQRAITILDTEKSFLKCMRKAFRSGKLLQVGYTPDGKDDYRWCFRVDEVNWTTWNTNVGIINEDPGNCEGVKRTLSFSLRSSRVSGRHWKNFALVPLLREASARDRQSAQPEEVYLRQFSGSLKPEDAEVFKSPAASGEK
# experimental-details: Acid Activation Assay (pH 5.0, intracellular Ca2+, FLIPR)
# Assay type: cell-based
# run-parameters: percentage of the maximal pH 5.0-induced response remaining; recombinant HEK293 hTRPV1 cells; maximum concentration tested 37.5 μM
Labels assigned by human TRPV1 H^+ (max % remain) range: group A = under 8%, group B = from 8% up to 50%, group C = 50% and over

Query string: Please let me know in which category the item O=C(Nc1ccc2c(c1)NC(=O)N(CCO)C2)N[C@@H]1CC(CF)(CF)Oc2cc(Cl)ccc21 [Example 316] belongs.
Result string: group B

Query string: Bin this entry: C[C@@]1(CF)C[C@@H](NC(=O)Nc2ccc3c(c2)NC(=O)N(CCO)C3)c2ccc(C(F)(F)F)cc2O1 [Example 58]
Result string: group A

Query string: Class (by measured human TRPV1 H^+ (max % remain)) for O=C(Nc1ccc2c(c1)NC(=O)N(CCO)C2)N[C@@H]1CCOc2ccccc21 [Example 308]
Result string: group A

Query string: Which human TRPV1 H^+ (max % remain) category applies to CN1C(=O)CCc2ccc(NC(=O)N[C@@H]3CCOc4ccc(F)cc43)cc21 [Example 282] here?
Result string: group C

Query string: For this compound, which bin applies? CN1C(=O)NCc2c(NC(=O)N[C@@H]3C[C@@](C)(C(F)(F)F)Oc4ccccc43)cccc21 [Example 165]
Result string: group B

Query string: Which human TRPV1 H^+ (max % remain) band matches CN1C(=O)NCc2c(NC(=O)N[C@@H]3CC(CF)(CF)Oc4ccc(F)cc43)cccc21 [Example 152] ?
Result string: group B

Query string: Determine which band this compound sits in: C[C@@]1(C(F)F)C[C@@H](NC(=O)Nc2ccc3c(c2)NC(=O)CO3)c2ccccc2O1 [Example 130]
Result string: group C

Query string: Input O=C1COc2ccc(NC(=O)NCC3CCc4ccc(C(F)(F)F)cc4O3)cc2N1 (stereo not drawn) [Example 132] ; output its category
Result string: group C

Query string: Which class holds CN1C(=O)CCc2ccc(NC(=O)N[C@@H]3CCOc4c3cccc4C(F)(F)F)cc21 [Example 284] ?
Result string: group C

Query string: State the band of C[C@H]1Oc2c(NC(=O)N[C@@H]3CC(CF)(CF)Oc4cc(Cl)ccc43)cccc2NC1=O [Example 134]
Result string: group A

Query string: Sort into band: CC1(C)C[C@@H](NC(=O)Nc2ccc3c(c2)NC(=O)N(CCO)C3)c2ccc(Cl)cc2O1 [Example 313]
Result string: group A

Query string: Lab note: sort CC1(C)C[C@@H](NC(=O)Nc2ccc3c(c2)NC(=O)N(CCO)C3)c2cccc(C(F)(F)F)c2O1 [Example 307] into the matching human TRPV1 H^+ (max % remain) band.
Result string: group B

Query string: // return the class label for CC1(C)C[C@@H](NC(=O)Nc2ccc3c(c2)NC(=O)N(CCO)C3)c2ccc(Cl)c(F)c2O1 [Example 61]
Result string: group A

Query string: Textbook exercise: identify the category of the compound given here, CN1C(=O)NCc2c(NC(=O)N[C@@H]3CC(CF)(CF)Oc4c3ccc(Cl)c4F)cccc21 [Example 3] , according to its measured value.
Result string: group B

Query string: Hi there! Could you help me figure out the category for CCC1(CC)C[C@@H](NC(=O)Nc2ccc3c(c2)NC(=O)N(C)C3)c2cc(F)ccc2O1 [Example 189] please?
Result string: group B

Query string: Assign a category based on measured human TRPV1 H^+ (max % remain) for Cn1c(=O)ccc2c(NC(=O)N[C@@H]3CC(CF)(CF)Oc4c3ccc(Cl)c4F)cccc21 [Example 21] and give only the class name.
Result string: group B

Query string: Please let me know in which category the item CN1Cc2ccc(NC(=O)N[C@@H]3CC(C)(C)Oc4c3cccc4C(F)(F)F)cc2NC1=O [Example 16] belongs.
Result string: group C

Query string: Could you tell me which band CC1(C)C[C@@H](NC(=O)Nc2ccc3c(c2)NC(=O)CC3)c2ccc(F)cc2O1 [Example 221] belongs to?
Result string: group B

Query string: Hi, small favor: classify O=C1COc2c(cccc2NC(=O)N[C@@H]2CC(CF)(CF)Oc3cc(Cl)ccc32)N1 [Example 323] by its human TRPV1 H^+ (max % remain) when you get a moment.
Result string: group A

Query string: State the class of the compound shown: CCC1(CC)C[C@@H](NC(=O)Nc2cccc3c2CNC(=O)N3C)c2ccc(C(F)(F)F)cc2O1 [Example 144]
Result string: group A
